From: patent US11242337B2

Target: NHE3 (Homo sapiens, UniProt P48764)
Construct: expressed in transfected cells
Sequence (P48764 26-834): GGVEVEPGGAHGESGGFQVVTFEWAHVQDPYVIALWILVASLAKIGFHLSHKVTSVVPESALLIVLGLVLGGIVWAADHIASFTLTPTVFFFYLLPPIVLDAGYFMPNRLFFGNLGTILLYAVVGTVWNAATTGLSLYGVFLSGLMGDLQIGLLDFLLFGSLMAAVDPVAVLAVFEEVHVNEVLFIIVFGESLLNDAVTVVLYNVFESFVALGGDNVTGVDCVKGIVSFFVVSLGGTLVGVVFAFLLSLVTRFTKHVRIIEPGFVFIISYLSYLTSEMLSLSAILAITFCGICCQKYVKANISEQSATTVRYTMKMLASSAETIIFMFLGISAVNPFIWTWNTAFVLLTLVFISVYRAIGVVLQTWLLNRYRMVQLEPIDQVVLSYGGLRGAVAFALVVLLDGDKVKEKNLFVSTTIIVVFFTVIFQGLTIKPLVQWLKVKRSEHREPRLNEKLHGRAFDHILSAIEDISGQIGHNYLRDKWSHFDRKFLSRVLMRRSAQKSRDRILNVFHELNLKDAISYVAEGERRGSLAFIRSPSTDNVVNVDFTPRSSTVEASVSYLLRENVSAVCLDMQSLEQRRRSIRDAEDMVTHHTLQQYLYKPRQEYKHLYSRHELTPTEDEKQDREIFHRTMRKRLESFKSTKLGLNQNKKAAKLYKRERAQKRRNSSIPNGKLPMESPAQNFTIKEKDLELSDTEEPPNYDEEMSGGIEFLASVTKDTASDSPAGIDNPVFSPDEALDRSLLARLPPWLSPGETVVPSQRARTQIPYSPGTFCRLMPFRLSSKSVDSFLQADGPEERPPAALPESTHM
Sequence (Q99653 2-195 partner limits assumed): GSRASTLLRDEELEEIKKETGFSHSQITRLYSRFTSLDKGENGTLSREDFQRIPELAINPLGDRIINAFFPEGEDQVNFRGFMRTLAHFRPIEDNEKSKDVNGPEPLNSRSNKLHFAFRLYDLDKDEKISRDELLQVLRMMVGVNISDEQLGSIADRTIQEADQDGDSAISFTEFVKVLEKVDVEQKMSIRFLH
Test: Cell-based assay of NHE-3 activity (persistent inhibition), human
Settings: human Persistence, 60 min incubation then washout
resultType: pIC50

Below: 4 molecules and their reported pIC50.
# lineNotation, pIC50
records = [
    ("CN(C)[C@H]1CCCN([C@H]2Cc3c(C#N)cc(Cl)cc3[C@@H]2Oc2ccc(S(=O)(=O)NCCOCCOCCNC(=O)NCCCCNC(=O)NCCOCCOCCNS(=O)(=O)c3ccc(O[C@H]4c5cc(Cl)cc(C#N)c5C[C@@H]4N4CCC[C@H](N(C)C)C4)cc3)cc2)C1", "C (NHE3 pIC50 > 7)"),
    ("Cc1cc(S(=O)(=O)N2CC[C@@H](COc3ccnc(CNC(=O)NCCCCNC(=O)NCc4cc(OC[C@@H]5CCN(S(=O)(=O)c6ccc(O[C@H]7c8cc(Cl)cc(C#N)c8C[C@@H]7N(C)C)c(C)c6)C5)ccn4)c3)C2)ccc1O[C@H]1c2cc(Cl)cc(C#N)c2C[C@@H]1N(C)C", "C (NHE3 pIC50 > 7)"),
    ("Cc1cc(S(=O)(=O)NCCOCCOCCNC(=O)NCCCCNC(=O)NCCOCCOCCNS(=O)(=O)c2ccc(O[C@H]3c4cc(Cl)cc(C)c4C[C@@H]3N3CCNCC3)c(C)c2)ccc1O[C@H]1c2cc(Cl)cc(C)c2C[C@@H]1N1CCNCC1", "C (NHE3 pIC50 > 7)"),
    ("Cc1cc(S(=O)(=O)NCCOCCOCCNC(=O)NCCCCNC(=O)NCCOCCOCCNS(=O)(=O)c2ccc(O[C@H]3c4cc(Cl)cc(F)c4C[C@@H]3N3CCC[C@@H](N)C3)c(C)c2)ccc1O[C@H]1c2cc(Cl)cc(F)c2C[C@@H]1N1CCC[C@@H](N)C1", "A (NHE3 pIC50 < 6)"),
]

Read off the recorded pIC50 for C[C@H](COCCOCCNC(=O)NCCCCNC(=O)NCCOCCOC[C@@H](C)NS(=O)(=O)c1ccc(O[C@H]2c3cc(Cl)cc(Cl)c3C[C@@H]2N2CCC[C@@H](N)C2)cc1)NS(=O)(=O)c1ccc(O[C@H]2c3cc(Cl)cc(Cl)c3C[C@@H]2N2CCC[C@@H](N)C2)cc1 C (NHE3 pIC50 > 7)

----------
Target: NHE3 (Homo sapiens, UniProt P48764)
Construct: expressed in transfected cells
Sequence (P48764 26-834): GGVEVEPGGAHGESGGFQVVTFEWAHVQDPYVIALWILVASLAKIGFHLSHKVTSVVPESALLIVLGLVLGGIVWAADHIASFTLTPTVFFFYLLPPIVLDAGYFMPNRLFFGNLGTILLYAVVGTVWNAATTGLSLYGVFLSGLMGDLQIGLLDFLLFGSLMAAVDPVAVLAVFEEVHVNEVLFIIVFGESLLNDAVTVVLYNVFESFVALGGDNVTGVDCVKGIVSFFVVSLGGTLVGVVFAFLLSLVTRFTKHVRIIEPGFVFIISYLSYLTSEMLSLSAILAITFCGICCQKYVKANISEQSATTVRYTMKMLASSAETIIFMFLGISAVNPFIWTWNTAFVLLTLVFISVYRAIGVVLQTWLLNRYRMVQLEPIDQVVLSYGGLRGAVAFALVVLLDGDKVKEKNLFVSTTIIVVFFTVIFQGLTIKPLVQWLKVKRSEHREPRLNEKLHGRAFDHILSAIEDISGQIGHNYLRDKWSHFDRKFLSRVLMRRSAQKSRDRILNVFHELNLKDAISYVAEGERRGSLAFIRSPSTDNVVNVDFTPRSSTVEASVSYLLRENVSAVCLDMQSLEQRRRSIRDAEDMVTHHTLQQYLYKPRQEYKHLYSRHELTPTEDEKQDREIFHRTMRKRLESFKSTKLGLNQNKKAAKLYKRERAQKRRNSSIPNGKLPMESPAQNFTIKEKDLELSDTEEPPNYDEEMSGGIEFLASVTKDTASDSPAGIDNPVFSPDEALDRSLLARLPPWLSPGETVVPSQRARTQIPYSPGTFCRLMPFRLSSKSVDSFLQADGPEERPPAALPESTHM
Sequence (Q99653 2-195 partner limits assumed): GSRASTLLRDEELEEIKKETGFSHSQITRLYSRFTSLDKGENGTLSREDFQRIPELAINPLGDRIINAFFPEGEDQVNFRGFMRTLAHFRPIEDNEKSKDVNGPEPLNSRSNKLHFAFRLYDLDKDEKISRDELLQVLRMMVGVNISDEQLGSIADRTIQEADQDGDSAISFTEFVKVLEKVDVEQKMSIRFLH
Assay: Cell-based assay of NHE-3 activity (persistent inhibition), human
Conditions: human Persistence, 60 min incubation then washout
Protocol: The ability of compounds to inhibit human and rat NHE-3-mediated Na^+ dependent H^+ antiport after application and washout was measured using a modification of the pH sensitive dye method described above. PS120 fibroblasts stably expressing human NHE3 and NHERF2 were obtained from Mark Donowitz (Baltimore, Md.). […] Changes in intracellular pH were monitored using a FLIPR Tetra® (Molecular Devices, Sunnyvale, Calif.) by excitation at λex 439 to 505 nm, and measuring BCECF fluorescence at λem 538 nm. […]
resultType: % inhibition

Below: 6 compounds and their reported % inhibition.
# lineNotation, systemTested, resultType, value
data = [
    ("N#Cc1cc(Cl)cc2c1C[C@H](N1CCNCC1)[C@H]2Oc1ccc(S(=O)(=O)NCCOCCOCCNC(=O)NCCCCNC(=O)NCCOCCOCCNS(=O)(=O)c2ccc(O[C@H]3c4cc(Cl)cc(C#N)c4C[C@@H]3N3CCNCC3)c(F)c2)cc1F", "NHE3 (Homo sapiens, UniProt P48764)", "% inhibition", "C (>70%)"),
    ("O=C(NCCCCNC(=O)NCCOCCOCCNS(=O)(=O)c1ccc(O[C@H]2c3cc(Cl)cc(Cl)c3C[C@@H]2N2CC3CCC2C3)cc1)NCCOCCOCCNS(=O)(=O)c1ccc(O[C@H]2c3cc(Cl)cc(Cl)c3C[C@@H]2N2CC3CCC2C3)cc1", "NHE3 (Homo sapiens, UniProt P48764)", "% inhibition", "C (>70%)"),
    ("Cc1cc(S(=O)(=O)NCCOCCOCCNC(=O)NCCCCNC(=O)NCCOCCOCCNS(=O)(=O)c2ccc(O[C@H]3c4cc(Cl)cc(Cl)c4C[C@@H]3N3CCNCC3)c(C)c2)ccc1O[C@H]1c2cc(Cl)cc(Cl)c2C[C@@H]1N1CCNCC1", "NHE3 (Homo sapiens, UniProt P48764)", "% inhibition", "C (>70%)"),
    ("Cc1cc(S(=O)(=O)N2CC[C@@H](COc3ccnc(CNC(=O)NCCCCNC(=O)NCc4cc(OC[C@@H]5CCN(S(=O)(=O)c6ccc(O[C@H]7c8cc(Cl)cc(Cl)c8C[C@@H]7N(C)C)c(C)c6)C5)ccn4)c3)C2)ccc1O[C@H]1c2cc(Cl)cc(Cl)c2C[C@@H]1N(C)C", "NHE3 (Homo sapiens, UniProt P48764)", "% inhibition", "C (>70%)"),
    ("CN(C)C(=O)N1CCN([C@H]2Cc3c(Cl)cc(Cl)cc3[C@@H]2Oc2ccc(S(=O)(=O)NCCOCCOCCNC(=O)NCCCCNC(=O)NCCOCCOCCNS(=O)(=O)c3ccc(O[C@H]4c5cc(Cl)cc(Cl)c5C[C@@H]4N4CCN(C(=O)N(C)C)CC4)cc3)cc2)CC1", "NHE3 (Homo sapiens, UniProt P48764)", "% inhibition", "A (NHE3 < 40%)"),
    ("Cc1cc(S(=O)(=O)NCCOCCOCCNC(=O)NCCCCNC(=O)NCCOCCOCCNS(=O)(=O)c2ccc(O[C@H]3c4cc(Cl)cc(C)c4C[C@@H]3N3CCC[C@@H](N)C3)c(C)c2)ccc1O[C@H]1c2cc(Cl)cc(C)c2C[C@@H]1N1CCC[C@@H](N)C1", "NHE3 (Homo sapiens, UniProt P48764)", "% inhibition", "C (>70%)"),
]

Read off the recorded % inhibition for CN1CCCN([C@H]2Cc3c(C#N)cc(Cl)cc3[C@@H]2Oc2ccc(S(=O)(=O)N[C@H]3CCN(CCOCCNC(=O)NCCCCNC(=O)NCCOCCN4CC[C@H](NS(=O)(=O)c5ccc(O[C@H]6c7cc(Cl)cc(C#N)c7C[C@@H]6N6CCCN(C)CC6)cc5)C4)C3)cc2)CC1 A (NHE3 < 40%)
